# PBM binding z-score values compiled below
# Tested on: THRa:RXRa (NR concentration 90 nM, RXRa partner concentration 90 nM)
# Assay Notes: PBM binding z-score (relative to random genomic background probes); higher = stronger binding; sequences stand for … in GC…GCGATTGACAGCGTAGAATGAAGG
Measurement Label: PBM binding z-score

>>> result("TCATATAGGTAAACGGGTGAAAGTCCGTAAGTTA")
0.421
>>> result("CTACCAAGGTGAGCAAGGTCGTTGATTACTATTC")
2.77
>>> result("TCGAGTAGGTTAGGGGCATTCATAATGGCGTCGA")
0.804
>>> result("GTACCAAGGTGAATAGGTCGGTGATGAGTAGGCG")
1.57
>>> result("CCAGACAAGTGAAAGGTAACTCAGTCTGGTACGC")
0.291
>>> result("CCTTGCGGGTCACTCCAGGTTATAGCATCGGAGT")
4.98
>>> result("CGAACCAGGTCAGAACAGGACAGTGAAGGATGAT")
3.69
>>> result("CATCAAAGTTCAAGGTAACGTAACAGAAAGCAGC")
3.04
>>> result("ACTATTAGTTGACTTAGGGCAACCGATACGACGC")
1.53
>>> result("CGAGCTAGGTCAGAACAGGACAGTGAAGGATGAT")
3.47
>>> result("ACAGACAGGCGAGTGAAGGTAACTCAGCTGGACG")
0.0808
>>> result("AGTCAAAGTTCACCTAGGTAACGTAAGATATGCT")
3.51

This collection of values is drawn from the supplement of paper PMC6555819.
